Reference source: PubChem BioAssay AID1159580

protocol: chemical genetic growth profiling, strain panel (AID 1159580);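 also: tested at 20 µM; growth read once vehicle control cultures reached saturation at 30 °C; 1 = growth at the plate median or of vehicle wells; lower values mean less growth of the strain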
setup conditions: S. cerevisiae deletion strains, growth OD, locus YJL187C, strain SWE1
The campaign covered roughly 5,500 compounds. About 2,000 (36%) were called active. Not shown: some 18% with an inconclusive outcome. Rule as the data show it: active = normalized growth mostly below about 0.91 (no sharp cut-off); inconclusive = no clear call, values can overlap the other calls; inactive = mostly above about 0.92. The list shows a part of the results.
Parameter call: string, one of TRUE for active, FALSE for inactive

Example cases with answers are listed next.
CCOC(=O)CCc1cc(N=Cc2cc(Cl)cc(Cl)c2O)c(O)c(N=Cc2cc(Cl)cc(Cl)c2O)c1
TRUE
CCCc1cc(OC)c2c(c1)OCO2
FALSE

Ask: Hi, do you know how O=C(NC(=O)c1c(F)cccc1F)Nc1cc(Cl)c(OC(F)(F)C(F)C(F)(F)F)cc1Cl (stereo not given) came out in this test?
Reply: FALSE

Ask: Record request — test call for C[C@@H]1C[C@@H]([C@H](O)CC2CC(=O)NC(=O)C2)C(=O)[C@@H](C)C1
Reply: TRUE

Ask: Just curious, what result did CC1(C)CCC(C(C)(C)O)CC1 get here?
Reply: TRUE

* * *

protocol: chemical genetic growth profiling, strain panel (AID 1159580)
setup conditions: S. cerevisiae deletion strains, growth OD, locus YNL250W, strain rad50, active compounds read low
Out of some 5,500 compounds screened, about 2,000 (36%) were called active. About 18% were inconclusive and are not listed. Some of the results follow.
quantity name: normalized growth
Give bare numbers.

COc1ccc(-c2cc(C(F)F)nn2-c2ccc(S(N)(=O)=O)cc2)cc1F
1.02
COc1cc(/C=C/C(=O)O)ccc1O
0.995
CCn1cc(C(=O)O)c(=O)c2cnc(N3CCCC3)nc21
0.996

Go through the items and report each one's normalized growth.
1. COc1cc(/C=C/C(=O)O)cc(OC)c1OC
2. COc1cc2c3cc1Oc1cc(ccc1O)OC1c4c(cc(OC)c(O)c4Oc4ccc(cc4)CC3N(C)CC2)CCN1C (stereo not given)
3. Nc1nc2ncc(CNc3ccc(C(=O)N[C@@H](CCC(=O)O)C(=O)O)cc3)nc2c(=O)[nH]1
4. COc1ccccc1N1CCNCC1
5. Oc1ccc(/C=C/c2cc(O)cc(O)c2)cc1
6. CC(=O)OCC(=O)[C@@]12OC(C)(C)O[C@@H]1CC1C3C[C@H](F)C4=CC(=O)C=C[C@]4(C)[C@@]3(F)[C@@H](O)C[C@@]12C (stereo not given in full)
7. COc1cc2c(cc1O)CC1c3c(cc(O)c(OC)c3-2)CCN1C (stereo not given)

Reply:
1. 1.02
2. 0.973
3. 0.981
4. 1.05
5. 0.971
6. 1.03
7. 1

* * *

Could you please report measured normalized growth for the items listed next?
protocol: chemical genetic growth profiling, strain panel (AID 1159580)
setup conditions: S. cerevisiae deletion strains, growth OD, locus YML016C, strain PPZ1, active compounds read low
The campaign covered roughly 5,500 compounds. About 2,000 (36%) were called active. Not shown: some 18% with an inconclusive outcome. The list shows a part of the results.

Dear colleague, could you send me normalized growth for each of the items below? Thanks.
1. CO[C@@H]1C[C@@H](C[C@H]2CC[C@H](C)[C@H]([C@@H](C)C(=O)O)O2)O[C@]2(O[C@](C)([C@H]3CC[C@@](C)(C4O[C@@H](C5O[C@@](O)(CO)[C@H](C)C[C@@H]5C)C[C@@H]4C)O3)C[C@H]2C)[C@@H]1C (some centres undefined)
2. C#C[C@]1(O)CCC2C3CCc4cc(O)ccc4C3CC[C@@]21C (some centres undefined)
3. COc1c(C(=O)O)ccc2c1CCC(C)(C)O2
4. O=c1cccc2n1C[C@H]1CNCC2C1

Reply:
1. 1.03 (inactive)
2. 1.03 (inactive)
3. 1.02 (inactive)
4. 1.01 (inactive)

* * *

protocol: chemical genetic growth profiling, strain panel (AID 1159580);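 also: tested at 20 µM; growth read once vehicle control cultures reached saturation at 30 °C; 1 = growth at the plate median or of vehicle wells; lower values mean less growth of the strain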
setup conditions: S. cerevisiae deletion strains, growth OD, locus YJL134W, strain LCB3
Among all 5,500 compounds or so, about 2,000 (36%) were called active. Not shown: some 18% with an inconclusive outcome. Cut-off read from the data, not from the text of the source: active = normalized growth mostly below about 0.91 (no sharp cut-off); inconclusive = no clear call, values can overlap the other calls; inactive = mostly above about 0.92. The list shows a part of the results.
Answer with one of the outcomes given here: true (1) (active), false (0) (inactive)

CS(=O)(=O)OCCCCOS(C)(=O)=O
false (0)
CCn1cc(C(=O)O)c(=O)c2cc3c(cc21)OCO3
false (0)
CC[C@@H]1[C@@H](O)N2C3C[C@H]1C1C(O)[C@]4(C[C@@H]12)c1ccccc1N(C)[C@@H]34 (stereo partly drawn)
false (0)

Ask: Would you mind telling me which call this test gave CCOC(N)=O ?
Reply: false (0)

Ask: Test call for this compound, please: Nc1nc2ncc(CNc3ccc(C(=O)N[C@@H](CCC(=O)O)C(=O)O)cc3)nc2c(=O)[nH]1
Reply: false (0)

Ask: Entry S=c1[nH]c2ccccc2s1 : call = ?
Reply: false (0)

Ask: Please share the test call associated with CC(=O)C1=C(O)C2C3c4c[nH]c5cccc(c45)CC3C(C)(C)N2C1=O (stereo not drawn) .
Reply: false (0)

Ask: For this compound, state the assay outcome: OC/C=C/c1ccc(O)c(O)c1
Reply: false (0)

Ask: For Nc1nc2c(c(=O)[nH]1)N(C=O)C(CNc1ccc(C(=O)N[C@@H](CCC(=O)O)C(=O)O)cc1)CN2 (stereo partly drawn) , which call appears in the assay record?
Reply: false (0)

Ask: Name the outcome recorded for C[C@H](COc1ccccc1)N[C@H](C)[C@H](O)c1ccc(O)cc1 in the assay.
Reply: false (0)

Ask: Recorded test call requested for O=C1O[C@@H](CO)[C@H](O)[C@@H](O)[C@@H]1O
Reply: false (0)

Ask: Please share the test call associated with O=C(O)CCCCC1SCC2NC(=O)NC21 (stereo not drawn) .
Reply: false (0)

Ask: // outcome(item) with item = Oc1ccc(/C=C/c2cc(O)cc(O)c2)cc1
Reply: false (0)

Ask: # outcome recorded in this test, key = CCOC(=O)CCCCCCCCCCCCC1C=CCC1 (stereo not drawn)
Reply: true (1)

Ask: For O=C(O)c1cc(=O)c2c(OCC(O)COc3cccc4oc(C(=O)O)cc(=O)c34)cccc2o1 , what call appears in the results of this test?
Reply: false (0)

Ask: Hey, what did the test say about C[C@@H]1CC2C3CCC4=CC(=O)C=C[C@]4(C)[C@@]3(F)[C@@H](O)C[C@]2(C)[C@@]1(O)C(=O)COP(=O)(O)O (stereo partly drawn) ?
Reply: false (0)

Ask: In this assay, the call recorded for CCn1cc(C(=O)O)c(=O)c2ccc(C)nc21 was what?
Reply: true (1)

Ask: Which result was noted for this compound in the test: CCn1cc(C(=O)O)c(=O)c2cnc(N3CCCC3)nc21
Reply: false (0)

Ask: Identify the outcome logged in this assay for the compound shown: O=C(O)CCCCCCCCCCCCC1C=CCC1 (stereo not drawn)
Reply: false (0)

Ask: Per the assay record, what outcome was assigned to COc1ccc(-c2cc(C(F)F)nn2-c2ccc(S(N)(=O)=O)cc2)cc1F ?
Reply: false (0)

Ask: Given CC(C)C1=CC2=CCC3[C@](C)(CCC[C@]3(C)C(=O)O)C2CC1 (stereo partly drawn) , state the outcome it received in this test.
Reply: false (0)

Ask: In this assay, the call recorded for COS(C)(=O)=O was what?
Reply: false (0)

Ask: Which outcome was entered for the compound CN(Cc1cnc2nc(N)nc(N)c2n1)c1ccc(C(=O)NC(CCC(=O)O)C(=O)O)cc1 (stereo not drawn) in this test?
Reply: false (0)

* * *

Kindly supply the reported normalized growth values for the records listed here.
protocol: chemical genetic growth profiling, strain panel (AID 1159580);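 also: tested at 20 µM; growth read once vehicle control cultures reached saturation at 30 °C; 1 = growth at the plate median or of vehicle wells; lower values mean less growth of the strain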
setup conditions: S. cerevisiae deletion strains, growth OD, locus YNL307C, strain MCK1, active compounds read low
In all, about 5,500 compounds went through this assay and about 2,000 (36%) were called active. Another 18% or so got no clear call; they are omitted. The list shows a part of the results.
Numbers only.

Solved cases (4 shown):
CC1=C(/C=C/C(C)=C/C=C/C(C)=C/C=C/C=C(C)/C=C/C=C(C)/C=C/C2=C(C)CCCC2(C)C)C(C)(C)CCC1
1.01
CC1=C(/C=C/C(C)=C/C=C/C(C)=C/C(=O)O)C(C)(C)CCC1
1.01
CC1=C(/C=C/C(C)=C/C=C/C(C)=C/CO)C(C)(C)CCC1
1.01
CC1=C(/C=C/C(C)=C/C=C/C(C)=C\C(=O)O)C(C)(C)CCC1
0.931

API: the following record is the query input.
Ask: Using the record for CC(=O)OC/C=C(C)/C=C/C=C(C)/C=C/C1=C(C)CCCC1(C)C , report its normalized growth.
Reply: 1

* * *

protocol: chemical genetic growth profiling, strain panel (AID 1159580);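 also: tested at 20 µM; growth read once vehicle control cultures reached saturation at 30 °C; 1 = growth at the plate median or of vehicle wells; lower values mean less growth of the strain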
setup conditions: S. cerevisiae deletion strains, growth OD, locus YLR085C, strain ARP6, active compounds read low
About 2,000 (36%) of roughly 5,500 compounds were called active. Another 18% or so got no clear call; they are omitted. This is one part of the list.
Provide the recorded normalized growth for the entries that follow.
Numbers only.

COC(=O)c1ccc(C#Cc2ccccc2)o1
0.325
Cc1ccc(Cl)cc1NC(=S)NCCO
1
CC(C)c1nc2ccccc2[nH]1
1.03
CC1(C)CCC(C(C)(C)O)CC1
1.04
CN(C)c1ccc(/C=N\NC(=O)CCc2ccc(O)cc2)c(Cl)c1
0.999

Your task in this section: give normalized growth for each listed record.
1. BrC12CC3CC(CC(C3)C1)C2
2. O=C(O)CC(CC(=O)O)c1ccc(C(F)(F)F)cc1
3. S=c1[nH]c2ccccc2[nH]1
4. C/C(=N/NC1=NCCN1)c1ccc(F)cc1
5. O=C(CC(Nc1ccccc1)c1ccccc1)C1CC1 (configuration not stated)
6. CCOC(=O)c1c(N=Cc2cc(Br)c(Br)cc2O)sc2c1CCCC2

Reply:
1.01
1.02
0.976
0.996
0.992
0.118

Ask: Item under review: NC(=O)CCSCCC(N)=O . Reported normalized growth?
Reply: 1.06
